Experiment: Stability test of amorphous form and crystalline forms I-IV, 40° C./75% RH, airtight container
Format: physicochemical
Conditions: at start
readout: Total amount of related substances (%)
Answers are plain numbers, in %.

For orientation, consider the following solved cases.
compound="NCCONC(=O)[C@@H]1CC[C@@H]2CN1C(=O)N2OS(=O)(=O)O [Crystalline form I]" readout="Total amount of related substances" reported_result=0.1
compound="NCCONC(=O)[C@@H]1CC[C@@H]2CN1C(=O)N2OS(=O)(=O)O [Crystalline form II]" readout="Total amount of related substances" reported_result=0.1
compound="NCCONC(=O)[C@@H]1CC[C@@H]2CN1C(=O)N2OS(=O)(=O)O [Crystalline form III]" readout="Total amount of related substances" reported_result=0.0
compound="NCCONC(=O)[C@@H]1CC[C@@H]2CN1C(=O)N2OS(=O)(=O)O [Amorphous form]" readout="Total amount of related substances" reported_result=0.5

Let's switch to this compound now.
QUERY: Dear colleague, I am looking for the recorded Total amount of related substances of the following compound: NCCONC(=O)[C@@H]1CC[C@@H]2CN1C(=O)N2OS(=O)(=O)O [Crystalline form IV]
RESULT: 0.0

###

Experiment: Stability test of amorphous form and crystalline forms I-IV, 40° C./75% RH, airtight container
Type: physicochemical
Settings: 1 month
Assignment: determine reported Water content for the given compounds.
Numbers only, in %.

compound="NCCONC(=O)[C@@H]1CC[C@@H]2CN1C(=O)N2OS(=O)(=O)O [Crystalline form III]" unit=% reported_result=5.3
compound="NCCONC(=O)[C@@H]1CC[C@@H]2CN1C(=O)N2OS(=O)(=O)O [Amorphous form]" unit=% reported_result=3.3
compound="NCCONC(=O)[C@@H]1CC[C@@H]2CN1C(=O)N2OS(=O)(=O)O [Crystalline form II]" unit=% reported_result=5.6
compound="NCCONC(=O)[C@@H]1CC[C@@H]2CN1C(=O)N2OS(=O)(=O)O [Crystalline form IV]" unit=% reported_result=0.1

Let's switch to this compound now.
QUERY: Dear colleague, I am looking for the recorded Water content of the following compound: NCCONC(=O)[C@@H]1CC[C@@H]2CN1C(=O)N2OS(=O)(=O)O [Crystalline form I]
RESULT: 5.4

###

Test: Stability test of amorphous form and crystalline forms I-IV, 40° C./75% RH, airtight container
Format: physicochemical
Conditions: 3 months
readout: Total amount of related substances (%)
Numbers only, in %.

compound="NCCONC(=O)[C@@H]1CC[C@@H]2CN1C(=O)N2OS(=O)(=O)O [Crystalline form III]" reported_result=0.0
compound="NCCONC(=O)[C@@H]1CC[C@@H]2CN1C(=O)N2OS(=O)(=O)O [Crystalline form II]" reported_result=0.5
compound="NCCONC(=O)[C@@H]1CC[C@@H]2CN1C(=O)N2OS(=O)(=O)O [Amorphous form]" reported_result=12.3

Let's switch to this compound now.
QUERY: Dear colleague, I am looking for the recorded Total amount of related substances of the following compound: NCCONC(=O)[C@@H]1CC[C@@H]2CN1C(=O)N2OS(=O)(=O)O [Crystalline form I]
RESULT: 0.1

###

Test: Stability test of amorphous form and crystalline forms I-IV, 40° C./75% RH, airtight container
Assay type: physicochemical
Details: 1 month
readout: Total amount of related substances (%)
Answers are plain numbers, in %.

For orientation, consider the following solved cases.
compound="NCCONC(=O)[C@@H]1CC[C@@H]2CN1C(=O)N2OS(=O)(=O)O [Crystalline form IV]" readout="Total amount of related substances" reported_result=0.0
compound="NCCONC(=O)[C@@H]1CC[C@@H]2CN1C(=O)N2OS(=O)(=O)O [Crystalline form II]" readout="Total amount of related substances" reported_result=0.0
compound="NCCONC(=O)[C@@H]1CC[C@@H]2CN1C(=O)N2OS(=O)(=O)O [Amorphous form]" readout="Total amount of related substances" reported_result=6.6

// batch mode: one Total amount of related substances value per listed entry
1. NCCONC(=O)[C@@H]1CC[C@@H]2CN1C(=O)N2OS(=O)(=O)O [Crystalline form I]
2. NCCONC(=O)[C@@H]1CC[C@@H]2CN1C(=O)N2OS(=O)(=O)O [Crystalline form III]

RESULT:
1. 0.0
2. 0.0

###

Assay: Stability test of amorphous form and crystalline forms I-IV, 40° C./75% RH, airtight container
Type: physicochemical
Conditions: 1 month
readout: Content (%)
Numbers only, in %.

compound="NCCONC(=O)[C@@H]1CC[C@@H]2CN1C(=O)N2OS(=O)(=O)O [Crystalline form II]" readout=Content reported_result=99.8

// batch mode: one Content value per listed entry
1. NCCONC(=O)[C@@H]1CC[C@@H]2CN1C(=O)N2OS(=O)(=O)O [Crystalline form III]
2. NCCONC(=O)[C@@H]1CC[C@@H]2CN1C(=O)N2OS(=O)(=O)O [Crystalline form I]
3. NCCONC(=O)[C@@H]1CC[C@@H]2CN1C(=O)N2OS(=O)(=O)O [Amorphous form]
4. NCCONC(=O)[C@@H]1CC[C@@H]2CN1C(=O)N2OS(=O)(=O)O [Crystalline form IV]

RESULT:
[100.0, 99.9, 93.3, 99.8]

###

Experiment: Stability test of amorphous form and crystalline forms I-IV, 40° C./75% RH, airtight container
Format: physicochemical
Conditions: 3 months
Assignment: determine reported Content for the given compounds.
Give bare numbers, in %.

For orientation, consider the following solved cases.
compound="NCCONC(=O)[C@@H]1CC[C@@H]2CN1C(=O)N2OS(=O)(=O)O [Amorphous form]" readout=Content unit=% reported_result=87.5
compound="NCCONC(=O)[C@@H]1CC[C@@H]2CN1C(=O)N2OS(=O)(=O)O [Crystalline form III]" readout=Content unit=% reported_result=99.9
compound="NCCONC(=O)[C@@H]1CC[C@@H]2CN1C(=O)N2OS(=O)(=O)O [Crystalline form I]" readout=Content unit=% reported_result=99.8

Let's switch to this compound now.
QUERY: Dear colleague, I am looking for the recorded Content of the following compound: NCCONC(=O)[C@@H]1CC[C@@H]2CN1C(=O)N2OS(=O)(=O)O [Crystalline form II]
RESULT: 99.3

###

Experiment: Stability test of amorphous form and crystalline forms I-IV, 40° C./75% RH, airtight container
Assay type: physicochemical
Conditions: 3 months
Method: Crystalline form III of Example 7a were dissolved in water and subjected to lyophilisation to afford (2S,5R)-N-(2-aminoethoxy)-7-oxo-6-(sulfooxy)-1,6-diazabicyclo[3.2.1]octane-2-carboxamide (VII-1) in an amorphous form. […] About 20 mg of the product was precisely measured and tested by JP16, Water Determination <2.48>Coulometric titration.
Assignment: determine reported Water content for the given molecules.
Answers are plain numbers, in %.

For orientation, consider the following solved cases.
molecule="NCCONC(=O)[C@@H]1CC[C@@H]2CN1C(=O)N2OS(=O)(=O)O [Amorphous form]" reported_result=3.8
molecule="NCCONC(=O)[C@@H]1CC[C@@H]2CN1C(=O)N2OS(=O)(=O)O [Crystalline form II]" reported_result=5.9
molecule="NCCONC(=O)[C@@H]1CC[C@@H]2CN1C(=O)N2OS(=O)(=O)O [Crystalline form III]" reported_result=5.5

QUERY: Dear colleague, I am looking for the recorded Water content of the following molecule: NCCONC(=O)[C@@H]1CC[C@@H]2CN1C(=O)N2OS(=O)(=O)O [Crystalline form I]
RESULT: 5.6

###

Experiment: Stability test of amorphous form and crystalline forms I-IV, 40° C./75% RH, airtight container
Format: physicochemical
Conditions: at start
Assignment: determine reported Water content for the given compounds.
Numbers only, in %.

For orientation, consider the following solved cases.
compound="NCCONC(=O)[C@@H]1CC[C@@H]2CN1C(=O)N2OS(=O)(=O)O [Crystalline form I]" reported_result=5.4
compound="NCCONC(=O)[C@@H]1CC[C@@H]2CN1C(=O)N2OS(=O)(=O)O [Crystalline form IV]" reported_result=0.1
compound="NCCONC(=O)[C@@H]1CC[C@@H]2CN1C(=O)N2OS(=O)(=O)O [Crystalline form II]" reported_result=5.7
compound="NCCONC(=O)[C@@H]1CC[C@@H]2CN1C(=O)N2OS(=O)(=O)O [Crystalline form III]" reported_result=5.3

Let's switch to this compound now.
QUERY: Dear colleague, I am looking for the recorded Water content of the following compound: NCCONC(=O)[C@@H]1CC[C@@H]2CN1C(=O)N2OS(=O)(=O)O [Amorphous form]
RESULT: 1.3

###

Test: Stability test of amorphous form and crystalline forms I-IV, 40° C./75% RH, airtight container
Assay type: physicochemical
Details: at start
Assignment: determine reported Content for the given compounds.
Answers are plain numbers, in %.

For orientation, consider the following solved cases.
compound="NCCONC(=O)[C@@H]1CC[C@@H]2CN1C(=O)N2OS(=O)(=O)O [Crystalline form I]" unit=% reported_result=99.9
compound="NCCONC(=O)[C@@H]1CC[C@@H]2CN1C(=O)N2OS(=O)(=O)O [Crystalline form II]" unit=% reported_result=99.8
compound="NCCONC(=O)[C@@H]1CC[C@@H]2CN1C(=O)N2OS(=O)(=O)O [Crystalline form IV]" unit=% reported_result=99.9

// batch mode: one Content value per listed entry
1. NCCONC(=O)[C@@H]1CC[C@@H]2CN1C(=O)N2OS(=O)(=O)O [Amorphous form]
2. NCCONC(=O)[C@@H]1CC[C@@H]2CN1C(=O)N2OS(=O)(=O)O [Crystalline form III]

RESULT:
[99.4, 99.9]

Data provenance is patent US20250059191A1.
